Target: T1, water-soluble hFcRn (human, UniProt P55899 24-297; P61769 21-119, limits assumed)
T1 construct: also called shFcRn; human FcRn
T1 sequence (P55899 24-297 limits assumed, chain 1 of 2): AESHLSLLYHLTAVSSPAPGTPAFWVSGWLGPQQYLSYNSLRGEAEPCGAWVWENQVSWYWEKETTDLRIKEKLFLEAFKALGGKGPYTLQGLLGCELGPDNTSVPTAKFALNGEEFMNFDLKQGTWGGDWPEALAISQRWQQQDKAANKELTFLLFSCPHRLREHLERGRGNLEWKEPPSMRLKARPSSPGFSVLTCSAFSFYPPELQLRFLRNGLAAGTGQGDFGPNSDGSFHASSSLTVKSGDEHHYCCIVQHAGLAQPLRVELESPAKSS
T1 sequence (P61769 21-119 limits assumed, chain 2 of 2): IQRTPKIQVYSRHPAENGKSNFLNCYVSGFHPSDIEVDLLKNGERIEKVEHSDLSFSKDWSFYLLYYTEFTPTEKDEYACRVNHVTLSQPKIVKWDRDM
Assay: SPR (Proteon XPR36, GLC chip), shFcRn immobilised, antibody as analyte, pH 7.4, 1:1 Langmuir, mean of six runs
metric-name: Kd (nM)
Numbers only, in nM.

Would you please look over these solved cases?
HL161D antibody (antibody, human IgG1, V domains shown, the VL entry runs a few residues into the constant region) VH: QLQLQESGPGLVKPSETLSLTCTVSGGSISSSSYYWGWIRQPPGKGLEWIGNIYYSGSTYYNPSLMSRVTISVDTSKNQFSLKLSSVTAADTAVYYCARQLSYNWNDRLFDYWGQGTLVTVSS VL: SYELTQPLSVSVALGQTARITCGGNNIGSKNVHWYQQKPGQAPVLVIYRDSNRPSGIPERFSGSNSGNTATLTISRAQAGDEADYYCQVWDSSTVVFGGGTKLTVLGQPKAAPSVTL | 1.78
HL161C antibody (antibody, human IgG1, V domains shown) VH: QVQLVQSGAEVKKPGASVKVSCKASGYTFTGCYMHWVRQAPGQGLEWMGRINPNSGGTNYAQKFQGRVTMTRDTSISTAYMDLSRLRSDDTAVYYCARDYSGWSFDYWGQGTLVTVSS VL: DIQMTQSPSSLSASVGDRVTITCRASQGISNYLAWFQQKPGKAPKSLIYAASSLQSGVPSKFSGSGSGTDFTLTISSLQSEDFATYYCQQYDSYPPTFGGGTKVEIKRTVAAPSVFI | 0.232

Please supply Kd for each of the following items, keeping them in order.
1. HL161A antibody (antibody, human IgG1, V domains shown) VH: EVQLLESGGGLVQPGGSLRLSCAASEFTFGSCVMTWVRQAPGKGLEWVSVISGSGGSTYYADSVKGRFTISRDNSKNTLYLQMNSLRAEDTAVYYCAKTPWWLRSPFFDYWGQGTLVTVSS VL: SYVLTQPPSVSVAPGQTARITCGGNNIGSTSVHWYQQKPGQAPVLVVHDDSDRPSGIPERFSGSNSGNTATLTISRVEAGDEADYYCQVRDSSSDHVIFGGGTKLTVLGQPKAAPSVTL
2. HL161B antibody (antibody, V domains shown, the VL entry runs a few residues into the constant region) VH: QLLLQESGPGLVKPSETLSLTCTVSGGSLSSSFSYWVWIRQPPGKGLEWIGTIYYSGNTYYNPSLKSRLTISVDTSKNHFSLNLSSVTAADTAVYYCARRAGILTGYLDSWGQGTLVTVSS VL: SYVLTQSPSVSVAPGQTARITCGGNNIGSKSVHWYQQKPGQAPVLVVYDDSDRPSGIPERFSASNSGNTATLTISRVEAGDEADYYCQVWDSSSDHVVFGGGTKLTVLGQPKAAPSVTL

0.247
1.76
